Tested on: gastric lesion formation (rat stomach)
Experiment: Shay rat: inhibition of gastric lesion formation induced by pyloric ligature and oral acetylsalicylic acid (protective effect on the stomach)
Assay type: in vivo
Details: perorally, rats, 1 h before pyloric ligature, 4 h, 100 mg/kg acetylsalicylic acid, dose reducing lesion index by 50% vs control
Excerpt: In these experiments, the compounds according to the invention were compared with prior art compounds (A-D) of European Patent Applications Nos. 0 005 129 and 0 074 341. […]
List of log10 of ED50 values.
Form field - Quantity: ED50; Unit: mg/kg; Scale: log10

Known results for compounds:
>  <Compound>
COc1ccc2[nH]c([S+]([O-])Cc3ncc(C)c(OC)c3C)nc2c1 (centres unmarked) [Serial No. B, reference compound]

>  <log10 of ED50>
0.34

$$$$
>  <Compound>
COc1ccnc(C[S+]([O-])c2nc3cc(OC(F)F)c(OC(F)F)cc3[nH]2)c1C (centres unmarked) [Serial No. 14]

>  <log10 of ED50>
-0.70

$$$$
>  <Compound>
COc1ccnc(C[S+]([O-])c2nc3cc(OC(F)(F)C(F)F)ccc3[nH]2)c1C (centres unmarked) [Serial No. 6]

>  <log10 of ED50>
-0.30

$$$$
>  <Compound>
COc1c(C)cnc(C[S+]([O-])c2nc3cc(OC(F)(F)F)ccc3[nH]2)c1C (centres unmarked) [Serial No. 8]

>  <log10 of ED50>
-0.40

$$$$

*Q* Any idea what log10 of ED50 came out for COc1ccnc(CSc2nc3cc(OCC(F)(F)F)ccc3[nH]2)c1C [Serial No. 11] on gastric lesion formation (rat stomach)?
*A* -0.30

*Q* Any idea what log10 of ED50 came out for COc1ccnc(C[S+]([O-])c2nc3cc(OC(F)(F)F)ccc3[nH]2)c1C (centres unmarked) [Serial No. 3] on gastric lesion formation (rat stomach)?
*A* -0.52

*Q* Any idea what log10 of ED50 came out for COc1ccnc(C[S+]([O-])c2nc3cc(OC(F)(F)Cl)ccc3[nH]2)c1 (centres unmarked) [Serial No. 18] on gastric lesion formation (rat stomach)?
*A* 0.11

*Q* Any idea what log10 of ED50 came out for COc1ccc2[nH]c(SCc3ncc(C)c(OC)c3C)nc2c1 [Serial No. A, reference compound] on gastric lesion formation (rat stomach)?
*A* 0.95

*Q* Any idea what log10 of ED50 came out for COc1ccnc(C[S+]([O-])c2nc3cc(OC(F)(F)F)ccc3[nH]2)c1 (centres unmarked) [Serial No. 1] on gastric lesion formation (rat stomach)?
*A* -0.22

*Q* Any idea what log10 of ED50 came out for COc1ccnc(CSc2nc3cc(OC(F)F)c(OC(F)F)cc3[nH]2)c1C [Serial No. 15] on gastric lesion formation (rat stomach)?
*A* -0.22

*Q* Any idea what log10 of ED50 came out for COc1ccnc(C[S+]([O-])c2nc3cc(OCC(F)(F)F)ccc3[nH]2)c1C (centres unmarked) [Serial No. 10] on gastric lesion formation (rat stomach)?
*A* -0.30

*Q* Any idea what log10 of ED50 came out for COc1cc(C[S+]([O-])c2nc3cc(OC(F)(F)F)ccc3[nH]2)ncc1C (centres unmarked) [Serial No. 4] on gastric lesion formation (rat stomach)?
*A* -0.05
